Molecular target: T1, G9a and GLP (Homo sapiens, UniProt Q96KQ7+Q9H9B1)
T1 sequence (Q96KQ7 2-1210 limits assumed): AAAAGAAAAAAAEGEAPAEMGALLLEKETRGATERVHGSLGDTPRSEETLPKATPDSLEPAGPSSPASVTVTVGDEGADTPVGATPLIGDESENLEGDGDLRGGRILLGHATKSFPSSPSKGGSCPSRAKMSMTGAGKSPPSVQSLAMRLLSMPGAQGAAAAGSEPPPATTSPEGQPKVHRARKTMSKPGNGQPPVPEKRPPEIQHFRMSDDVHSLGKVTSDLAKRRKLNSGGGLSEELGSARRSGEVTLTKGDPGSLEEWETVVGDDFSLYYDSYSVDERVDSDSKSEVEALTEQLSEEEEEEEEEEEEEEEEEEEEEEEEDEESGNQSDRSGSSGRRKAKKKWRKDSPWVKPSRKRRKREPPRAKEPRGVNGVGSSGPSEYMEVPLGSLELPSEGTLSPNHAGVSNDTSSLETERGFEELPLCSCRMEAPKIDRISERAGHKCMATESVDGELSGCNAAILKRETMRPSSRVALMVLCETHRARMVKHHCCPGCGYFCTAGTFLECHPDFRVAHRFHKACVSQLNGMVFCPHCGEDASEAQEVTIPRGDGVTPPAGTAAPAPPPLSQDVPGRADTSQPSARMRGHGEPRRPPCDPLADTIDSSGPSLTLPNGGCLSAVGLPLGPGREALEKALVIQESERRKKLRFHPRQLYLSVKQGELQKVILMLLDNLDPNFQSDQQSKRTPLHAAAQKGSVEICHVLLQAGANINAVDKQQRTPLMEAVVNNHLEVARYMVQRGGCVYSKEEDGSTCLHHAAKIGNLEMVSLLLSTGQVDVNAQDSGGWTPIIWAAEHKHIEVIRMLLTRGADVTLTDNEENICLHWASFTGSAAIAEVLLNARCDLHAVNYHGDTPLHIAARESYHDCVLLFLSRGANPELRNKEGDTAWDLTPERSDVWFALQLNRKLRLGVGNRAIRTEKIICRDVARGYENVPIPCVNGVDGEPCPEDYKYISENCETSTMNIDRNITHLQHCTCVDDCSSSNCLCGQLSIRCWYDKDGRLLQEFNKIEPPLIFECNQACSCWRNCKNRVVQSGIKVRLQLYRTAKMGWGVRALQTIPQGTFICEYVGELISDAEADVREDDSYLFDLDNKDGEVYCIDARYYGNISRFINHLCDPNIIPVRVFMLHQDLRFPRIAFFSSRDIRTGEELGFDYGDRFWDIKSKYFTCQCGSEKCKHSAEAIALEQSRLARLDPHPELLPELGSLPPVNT
T1 sequence (Q9H9B1 2-1298 limits assumed): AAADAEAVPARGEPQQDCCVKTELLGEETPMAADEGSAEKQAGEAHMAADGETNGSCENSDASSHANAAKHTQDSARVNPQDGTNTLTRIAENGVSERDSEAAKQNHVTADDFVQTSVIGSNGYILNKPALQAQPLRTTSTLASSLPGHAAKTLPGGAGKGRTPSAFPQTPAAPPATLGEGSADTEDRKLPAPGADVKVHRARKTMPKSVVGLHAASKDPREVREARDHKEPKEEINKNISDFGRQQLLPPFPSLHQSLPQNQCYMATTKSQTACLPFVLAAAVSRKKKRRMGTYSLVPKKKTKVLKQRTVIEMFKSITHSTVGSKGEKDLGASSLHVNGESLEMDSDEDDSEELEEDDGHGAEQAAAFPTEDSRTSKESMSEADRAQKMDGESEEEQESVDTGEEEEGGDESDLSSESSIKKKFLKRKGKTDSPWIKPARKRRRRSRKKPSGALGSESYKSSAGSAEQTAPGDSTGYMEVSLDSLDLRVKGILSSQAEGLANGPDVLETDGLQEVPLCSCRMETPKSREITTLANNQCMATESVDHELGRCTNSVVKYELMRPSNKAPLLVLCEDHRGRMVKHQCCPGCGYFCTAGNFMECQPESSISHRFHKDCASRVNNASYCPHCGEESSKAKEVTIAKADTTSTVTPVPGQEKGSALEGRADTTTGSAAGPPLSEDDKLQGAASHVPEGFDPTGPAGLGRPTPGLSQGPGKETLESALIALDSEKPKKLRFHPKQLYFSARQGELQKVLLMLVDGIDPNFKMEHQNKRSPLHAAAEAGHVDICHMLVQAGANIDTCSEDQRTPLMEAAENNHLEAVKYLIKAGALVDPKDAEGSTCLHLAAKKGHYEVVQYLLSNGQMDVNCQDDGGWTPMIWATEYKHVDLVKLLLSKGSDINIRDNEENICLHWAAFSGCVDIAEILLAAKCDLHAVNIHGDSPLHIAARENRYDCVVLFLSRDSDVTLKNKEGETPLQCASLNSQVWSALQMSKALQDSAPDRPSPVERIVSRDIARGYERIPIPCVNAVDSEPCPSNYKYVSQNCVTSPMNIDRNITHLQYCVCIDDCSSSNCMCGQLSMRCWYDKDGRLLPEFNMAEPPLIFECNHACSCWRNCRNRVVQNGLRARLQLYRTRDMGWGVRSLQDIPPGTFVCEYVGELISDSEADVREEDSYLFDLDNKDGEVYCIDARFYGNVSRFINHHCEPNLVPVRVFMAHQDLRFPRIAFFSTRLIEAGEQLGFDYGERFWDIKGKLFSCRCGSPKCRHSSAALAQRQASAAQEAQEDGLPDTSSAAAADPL
Test: Triple SILAC pull-down after UNC0638 treatment of 293T cells, DMSO/UNC0638 ratio of protein captured by 3×MBT;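 note: mass spectrometry (Q-Exactive) SILAC quantitation, DMSO/UNC0638 ratio computed after subtracting 3×MBTD355N mutant pull-down background, only proteins with at least twofold 3×MBT over mutant signal considered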
Type: cell-based
Set-up: cells were treated for 24 hours with UNC0638 at 2.5 μM or DMSO vehicle control; endogenous in cells; host or cells: HEK 293T
Conditions: SILAC ratio DMSO relative to UNC0638, pull-down with 3xMBT; UNC0638 in heavy SILAC media; all values in log base 2
Everything with Relative to UNC0638 UNC Heavy lower than 0.1 log base 2 is No; everything else, including exactly 0.1 log base 2, is Yes.

Would you say RPRD1A (protein, UniProt Q96P16 2-312, looked up) Regulation of nuclear …: SAFSEAALEKKLSELSNSQQSVQTLSLWLIHHRKHSRPIVTVWERELRKAKPNRKLTFLYLANDVIQNSKRKGPEFTKDFAPVIVEAFKHVSSETDESCKKHLGRVLSIWEERSVYENDVLEQLKQALYGDKKPRKRTYEQIKVDENENCSSLGSPSEPPQTLDLVRALQDLENAASGDAAVHQRIASLPVEVQEVSLLDKITDKESGERLSKMVEDACMLLADYNGRLAAEIDDRKQLTRMLADFLRCQKEALAEKEHKLEEYKRKLARVSLVRKELRSRIQSLPDLSRLPNVTGSHMHLPFAGDIYSED shows Relative to UNC0638 UNC Heavy at minimum 0.1 log base 2?
Yes

Check if Relative to UNC0638 UNC Heavy >= 0.1 log base 2 (inclusive). Item: TK1 (protein, UniProt P04183 2-234, looked up) Thymidine kinase, cytosolic: SCINLPTVLPGSPSKTRGQIQVILGPMFSGKSTELMRRVRRFQIAQYKCLVIKYAKDTRYSSSFCTHDRNTMEALPACLLRDVAQEALGVAVIGIDEGQFFPDIVEFCEAMANAGKTVIVAALDGTFQRKPFGAILNLVPLAESVVKLTAVCMECFREAAYTKRLGTEKEVEVIGGADKYHSVCRLCYFKKASGQPAGPDNKENCPVPGKPGEAVAARKLFAPQQILQCSPAN
Yes

API: above_or_equal(metric=Relative to UNC0638 UNC Heavy, cutoff=0.1 log base 2) for item NPM3 (protein, UniProt O75607 2-178, looked up) Nucleoplasmin-3: AAGTAAALAFLSQESRTRAGGVGGLRVPAPVTMDSFFFGCELSGHTRSFTFKVEEEDDAEHVLALTMLCLTEGAKDECNVVEVVARNHDHQEIAVPVANLKLSCQPMLSLDDFQLQPPVTFRLKSGSGPVRITGRHQIVTMSNDVSEEESEEEEEDSDEEEVELCPILPAKKQGGRP
Yes

Determine whether measured Relative to UNC0638 UNC Heavy meets or exceeds 0.1 log base 2 for CGGBP1 (protein, UniProt Q9UFW8 1-167, looked up) CGG triplet repeat-binding …: MERFVVTAPPARNRSKTALYVTPLDRVTEFGGELHEDGGKLFCTSCNVVLNHVRKSAISDHLKSKTHTKRKAEFEEQNVRKKQRPLTASLQCNSTAQTEKVSVIQDFVKMCLEANIPLEKADHPAVRAFLSRHVKNGGSIPKSDQLRRAYLPDGYENENQLLNSQDC
No

Others:
Form field: Relative to UNC0638 UNC Heavy at least 0.1 log base 2? Entry: THYN1 (protein, UniProt Q9P016 1-225, looked up) Thymocyte nuclear protein 1: MSRPRKRLAGTSGSDKGLSGKRTKTENSGEALAKVEDSNPQKTSATKNCLKNLSSHWLMKSEPESRLEKGVDVKFSIEDLKAQPKQTTCWDGVRNYQARNFLRAMKLGEEAFFYHSNCKEPGIAGLMKIVKEAYPDHTQFEKNNPHYDPSSKEDNPKWSMVDVQFVRMMKRFIPLAELKSYHQAHKATGGPLKNMVLFTRQRLSIQPLTQEEFDFVLSLEEKEPS
No
